Reference for the values: patent US11214803B2

tested on: Yap1 mRNA; experiment: Antisense inhibition of human Yap1 in A-431 cells by cEt gapmers, single dose (Example 2, RTS4814); assay type: cell-based; conditions: Table 21; Yap1 mRNA, percent of untreated control; 3-10-3 cEt gapmers targeting SEQ ID NO.: 1 and 2
Strand notation (5' to 3'): a small letter for the sugar, then the base; units joined by * are phosphorothioate-linked, units joined directly phosphodiester-linked; [ ] holds rarer units or linkages, { } end groups; capitals alone tell only the bases. k = constrained ethyl (cEt); [5mC] = 5-methylcytosine; d = 2'-deoxy (DNA)
Decide by YAP1 (% UTC): equal to or exceeding 20 % UTC means true, less means false.

stdin: Decide: YAP1 (% UTC) of 1075527 (kA*kT*kT*dT*dA*dA*dT*dT*dA*dA*dG*dG*dG*k[5mC]*k[5mC]*k[5mC]; antisense) [Compound 1075527] >= 20 % UTC?
stdout: true

stdin: What about this substance? 1075047 (antisense kT*kA*kA*dA*dA*dT*dT*dA*dG*dA*d[5mC]*dT*d[5mC]*k[5mC]*k[5mC]*k[5mC]) [Compound 1075047]
stdout: false

stdin: What about this substance? 1074535 (antisense kG*kT*kA*dA*dT*dA*dG*d[5mC]*dT*d[5mC]*dT*dT*dT*k[5mC]*kT*kA) [Compound 1074535]
stdout: false

stdin: What about this substance? 1076231 (kT*kT*kA*dG*dA*dA*dA*dT*dG*dG*dA*d[5mC]*dT*kG*kG*kG; antisense) [Compound 1076231]
stdout: false

stdin: What about this substance? 1074855 (antisense kG*kT*kG*d[5mC]*dA*dT*dT*dA*dA*dA*dG*dA*dA*kT*kT*k[5mC]) [Compound 1074855]
stdout: true

stdin: What about this substance? 1074279 (antisense kG*kT*k[5mC]*dA*dA*dG*d[5mC]*d[5mC]*dT*dT*dG*dG*dG*kT*k[5mC]*kT) [Compound 1074279]
stdout: false

stdin: What about this substance? 1075815 (kG*kT*kA*dT*dA*dA*dA*dG*d[5mC]*dA*dG*dG*dG*k[5mC]*kA*kT; antisense) [Compound 1075815]
stdout: true

stdin: What about this substance? 1074759 (k[5mC]*kA*kA*d[5mC]*d[5mC]*dA*dA*dG*dA*dA*dG*d[5mC]*dA*kG*kT*kT; antisense) [Compound 1074759]
stdout: true

stdin: What about this substance? 1074471 (k[5mC]*k[5mC]*k[5mC]*d[5mC]*d[5mC]*d[5mC]*d[5mC]*dA*d[5mC]*d[5mC]*dG*dA*d[5mC]*k[5mC]*k[5mC]*kT; antisense) [Compound 1074471]
stdout: true

stdin: What about this substance? 1075175 (antisense kA*k[5mC]*kT*dG*dA*dA*dA*dG*dA*dT*dT*d[5mC]*d[5mC]*kA*kT*kG) [Compound 1075175]
stdout: true

====

tested on: Yap1 mRNA; experiment: Dose-dependent inhibition of human Yap1 in A-431 cells (Example 7, 10,000 cells per well, RTS36584); assay type: cell-based; conditions: 62.5 nM, A-431 cells, 10,000 cells per well, free uptake, approximately 48 hours
Strand notation (5' to 3'): a small letter for the sugar, then the base; units joined by * are phosphorothioate-linked, units joined directly phosphodiester-linked; [ ] holds rarer units or linkages, { } end groups; capitals alone tell only the bases. k = constrained ethyl (cEt); [5mC] = 5-methylcytosine; d = 2'-deoxy (DNA)
Kindly supply the reported Yap1 mRNA, % UTC values for the records listed here.
Give the quantity in % UTC, number only.

stdin: What value of Yap1 mRNA, % UTC has been reported for the following substance? 958650 (kT*k[5mC]*kA*dA*dT*dT*dG*dA*dG*dT*d[5mC]*dT*dG*k[5mC]*kT*kA; antisense) [compound 958650]
stdout: 51

stdin: What about this substance? 958540 (kA*kT*kT*d[5mC]*dT*dA*dT*d[5mC]*d[5mC]*dA*dG*dG*dG*kT*k[5mC]*kA; antisense) [compound 958540]
stdout: 28

stdin: What about this substance? 958485 (kA*kG*kA*dG*dG*dT*d[5mC]*dA*dG*d[5mC]*dA*dA*dT*kA*k[5mC]*kA; antisense) [compound 958485]
stdout: 38

====

Test system: Yap1 mRNA
Experiment: Antisense inhibition of human Yap1 in A-431 cells by cEt gapmers, single dose (Example 2, RTS4814)
Assay type: cell-based
Details: A-431 cells, 5,000 cells per well, free uptake, 2,000 nM modified oligonucleotide, approx. 48 hours, RTS4814, normalized to RIBOGREEN; Table 4; asterisk (*) = targets amplicon region of primer probe set
Description: Modified oligonucleotides were designed to target a Yap1 nucleic acid and were tested for their effect on Yap1 mRNA level in vitro. The modified oligonucleotides were tested in a series of experiments that had similar culture conditions. […] After a treatment period of approximately 48 hours, RNA was isolated from the cells and Yap1 mRNA levels were measured by quantitative real-time RTPCR. […] Yap1 mRNA levels were normalized to total RNA content, as measured by RIBOGREEN®. […]
Strand notation (5' to 3'): a small letter for the sugar, then the base; units joined by * are phosphorothioate-linked, units joined directly phosphodiester-linked; [ ] holds rarer units or linkages, { } end groups; capitals alone tell only the bases. k = constrained ethyl (cEt); [5mC] = 5-methylcytosine; d = 2'-deoxy (DNA)
Kindly supply the reported YAP1 (% UTC) values for the records listed here.

stdin: What value of YAP1 (% UTC) has been reported for the following substance? 716394 (kG*kT*kT*dG*d[5mC]*dT*dG*d[5mC]*dA*dG*dT*d[5mC]*dG*k[5mC]*kA*kT; antisense) [Compound 716394]
stdout: 120 % UTC

stdin: What about this substance? 716412 (kG*kT*kA*dG*dT*d[5mC]*dT*dG*dG*dG*dA*dA*dA*k[5mC]*kG*kG; antisense) [Compound 716412]
stdout: 41 % UTC

stdin: What about this substance? 716379 (k[5mC]*k[5mC]*kA*dG*dA*dA*dG*dA*dT*dG*dT*d[5mC]*dT*kT*kT*kG; antisense) [Compound 716379]
stdout: 123 % UTC

stdin: What about this substance? 716346 (kT*kT*kT*d[5mC]*d[5mC]*d[5mC]*dT*dG*dG*d[5mC]*dG*dG*d[5mC]*kG*kG*k[5mC]; antisense) [Compound 716346]
stdout: 77 % UTC

stdin: What about this substance? 716532 (antisense k[5mC]*kA*kA*dG*dA*dA*dG*d[5mC]*dA*dG*dT*dT*dA*kA*kG*k[5mC]) [Compound 716532]
stdout: 70 % UTC

stdin: What about this substance? 716481 (kT*k[5mC]*kA*dG*d[5mC]*dA*dT*dA*dG*dA*dA*dG*dT*kA*kG*kG; antisense) [Compound 716481]
stdout: 23 % UTC

stdin: What about this substance? 716376 (k[5mC]*kG*kA*dA*dG*dA*dT*dG*d[5mC]*dT*dG*dA*dG*k[5mC]*kT*kG; antisense) [Compound 716376]
stdout: 35 % UTC

stdin: What about this substance? 716352 (k[5mC]*kT*kG*d[5mC]*dG*d[5mC]*d[5mC]*d[5mC]*d[5mC]*dG*dG*d[5mC]*dT*k[5mC]*k[5mC]*kA; antisense) [Compound 716352]
stdout: 105 % UTC

stdin: What about this substance? 716502 (k[5mC]*kA*k[5mC]*dA*dG*dT*dG*dA*dT*dT*dG*d[5mC]*dA*kT*kT*kT; antisense) [Compound 716502]
stdout: 11 % UTC

stdin: What about this substance? 716517 (antisense kT*kT*k[5mC]*dA*d[5mC]*dA*dA*d[5mC]*d[5mC]*d[5mC]*d[5mC]*d[5mC]*d[5mC]*k[5mC]*k[5mC]*k[5mC]) [Compound 716517]
stdout: 53 % UTC

stdin: What about this substance? 716520 (antisense kA*kG*kT*d[5mC]*dT*dT*dT*dA*dT*dT*dA*dA*dA*kG*kA*kG) [Compound 716520]
stdout: 96 % UTC

stdin: What about this substance? 716409 (k[5mC]*kA*kG*dG*dA*dA*dG*dT*d[5mC]*dA*dT*d[5mC]*dT*kG*kG*kG; antisense) [Compound 716409]
stdout: 99 % UTC

stdin: What about this substance? 716442 (kG*k[5mC]*kA*d[5mC]*dT*dA*dG*dG*dA*dG*dG*dA*dA*kA*kA*kG; antisense) [Compound 716442]
stdout: 63 % UTC

stdin: What about this substance? 716457 (kA*kA*kA*dG*dG*dA*dT*dA*d[5mC]*dA*dT*dT*d[5mC]*k[5mC]*kA*k[5mC]; antisense) [Compound 716457]
stdout: 61 % UTC

stdin: What about this substance? 716553 (kA*kT*k[5mC]*d[5mC]*dA*d[5mC]*d[5mC]*dT*dG*dA*dG*d[5mC]*dA*k[5mC]*kT*k[5mC]; antisense) [Compound 716553]
stdout: 54 % UTC

stdin: What about this substance? 716529 (antisense k[5mC]*kA*kA*dA*d[5mC]*dT*d[5mC]*dA*dA*dA*dA*dA*dG*kG*kG*kA) [Compound 716529]
stdout: 61 % UTC
